# Assayed Target: isomerase (Mus musculus)
# Construct: The recovery of 11-cis-retinal after bleaching can be used to estimate the activity of isomerase in vivo; from tissue; host or cells: eyes of living CD-1 and Balb/c male mice
# Sequence (Q91ZQ5 1-533): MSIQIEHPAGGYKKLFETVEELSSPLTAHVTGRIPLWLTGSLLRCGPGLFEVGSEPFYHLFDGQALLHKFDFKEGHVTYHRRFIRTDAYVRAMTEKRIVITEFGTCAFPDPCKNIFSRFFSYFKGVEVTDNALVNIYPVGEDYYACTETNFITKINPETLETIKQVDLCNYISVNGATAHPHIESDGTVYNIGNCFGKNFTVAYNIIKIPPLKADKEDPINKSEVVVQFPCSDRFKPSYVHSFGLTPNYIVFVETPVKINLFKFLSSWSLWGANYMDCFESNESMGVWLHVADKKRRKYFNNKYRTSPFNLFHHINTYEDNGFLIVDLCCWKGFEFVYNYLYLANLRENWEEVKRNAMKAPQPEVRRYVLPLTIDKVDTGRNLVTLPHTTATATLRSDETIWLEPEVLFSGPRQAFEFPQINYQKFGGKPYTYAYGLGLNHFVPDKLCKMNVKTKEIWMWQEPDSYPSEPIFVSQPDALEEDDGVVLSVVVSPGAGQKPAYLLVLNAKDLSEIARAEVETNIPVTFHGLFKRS
# Measurement Notes: In vivo murine isomerase assay (recovery of 11-cis-retinal after photobleaching)
# Set-up: species or system mice
# Study Conditions: mouse; 1 mg/kg, 24 h; read-out: % Inibition
# Procedure: The capability of alkynyl phenyl-linked amine derivatives to inhibit isomerase is determined by an in vivo murine isomerase assay. […] Retinoids were extracted from the eye and the regeneration of 11-cis-retinal was assessed at various time intervals. […] The samples were analyzed on an Agilent 1100 HPLC system with normal phase column: SILICA (Beckman Coutlier, dp 5 μm, 4.6 mM×250 mM). […] Positive control mice (no compound administered) were sacrificed fully dark-adapted and the eye retinoids analyzed. […]
Readout Label: inhibition in vivo at 1 mg/kg (%)

INSERT INTO measurements (compound, readout_label, test_result) VALUES
  ('NCCOc1cccc(C#CC2(O)CCCCCC2)c1', 'inhibition in vivo at 1 mg/kg', 0),
  ('NCCC(O)c1cccc(C#CCCO)c1 (stereo not shown)', 'inhibition in vivo at 1 mg/kg', 0),
  ('NCCCc1cccc(C#Cc2ccncc2)c1', 'inhibition in vivo at 1 mg/kg', 0);

P = COc1ccccc1C#Cc1cccc(C(O)CCN)c1 (stereo not shown)
Q = NCCOc1cccc(C#CC2(O)CCCC2)c1
Of the two listed items, P and Q , which carries the larger inhibition in vivo at 1 mg/kg figure? Return value: the label identifying the chosen record.
P
(P: 58%, Q: 0%)

P = NCCOc1cccc(C#CC2CCCC2)c1
Q = NCCCc1cccc(C#C[C@@H](O)c2ccccc2)c1
R = NCCC(O)c1cccc(C#CC2CCCC2)c1 (stereo not shown)
Sequence the entries by inhibition in vivo at 1 mg/kg, beginning with the highest number. List the labels according to the requested ordering.
R, P, Q
